System: Jurkat
experiment-description: Antiproliferative activity against human Jurkat cells after 72 hrs by BrdU incorporation assay
Assay type: functional, cell-based
pIC50: −log10 of the molar value.
# pIC50 annotations
experimental-endpoint: pIC50

• Oc1cc(-c2nc(NCc3ccc(Cl)c(Cl)c3)c3ccccc3n2)cc(O)c1O = 5.44
• Oc1cc(-c2nc(Nc3ccc4c(c3)OCO4)c3ccccc3n2)cc(O)c1O = 6.10
• COc1cc(-c2nc(Nc3ccc(C)cc3)c3ccccc3n2)cc(OC)c1OC = 7.54
• CCCCCCCCOc1ccc(Nc2nc(-c3cc(OC)c(OC)c(OC)c3)nc3ccccc23)cc1 = 6.07

###

System: Jurkat
experiment-description: Antiproliferative activity against human Jurkat cells after 72 hrs by BrdU incorporation assay
Format: functional, cell-based
# IC50 annotations
experimental-endpoint: IC50 (nM)

- Oc1ccc(Nc2nc(-c3cc(O)c(O)c(O)c3)nc3ccccc23)cc1: 1120
- Oc1cc(-c2nc(NCc3ccccc3)c3ccccc3n2)cc(O)c1O: 950
- Cc1ccc(Nc2nc(-c3cc(O)c(O)c(O)c3)nc3ccccc23)cc1: 850
- COc1cc(-c2nc(NCc3ccc(F)c(F)c3)c3ccccc3n2)cc(OC)c1OC: 730
- Oc1cc(-c2nc(Nc3ccc(OC(F)(F)F)cc3)c3ccccc3n2)cc(O)c1O: 3240
- Oc1cc(-c2nc(Nc3ccc(Cl)cc3)c3ccccc3n2)cc(O)c1O: 4250
- COc1cc(-c2nc(Nc3ccc4[nH]ncc4c3)c3ccccc3n2)cc(OC)c1OC: 700
- Oc1cc(-c2nc(Nc3ccc4nc[nH]c4c3)c3ccccc3n2)cc(O)c1O: 2570
- Cc1ccc(Nc2nc(-c3cc(O)c(O)c(O)c3)nc3ccccc23)c(C)c1: 3700
- Nc1ccc(CNc2nc(-c3cc(O)c(O)c(O)c3)nc3ccccc23)cc1: 670

###

Test system: Jurkat
experiment-description: Antiproliferative activity against non-stimulated human Jurkat cells after 72 hrs by BrdU incorporation assay
Format: functional, cell-based
experimental-endpoint: IC50 (nM)

- COc1cc(-c2nc(Nc3ccc(C)cc3)c3ccccc3n2)cc(OC)c1OC: 50

###

Tested on: Jurkat
experiment-description: Antiproliferative activity against human Jurkat cells after 72 hrs by BrdU incorporation assay
Assay type: functional, cell-based
# IC50 annotations
experimental-endpoint: IC50 (nM)

- COc1cc(-c2nc(NCc3ccc(Cl)c(Cl)c3)c3ccccc3n2)cc(OC)c1OC: 730
- COc1cc(-c2nc(Nc3ccc4cn[nH]c4c3)c3ccccc3n2)cc(OC)c1OC: 600
- COc1ccc(CNc2nc(-c3cc(O)c(O)c(O)c3)nc3ccccc23)cc1: 5430
- COc1cc(-c2nc(Nc3ccc4c(c3)OCO4)c3ccccc3n2)cc(OC)c1OC: 600
- COc1ccc(CNc2nc(-c3cc(OC)c(OC)c(OC)c3)nc3ccccc23)cc1: 1100
- Oc1cc(-c2nc(Nc3ccccc3)c3ccccc3n2)cc(O)c1O: 5500
- COc1ccc(Nc2nc(-c3cc(OC)c(OC)c(OC)c3)nc3ccccc23)cc1: 1100
- COc1cc(-c2nc(Nc3ccc(C)cc3C)c3ccccc3n2)cc(OC)c1OC: 2600
- COc1cc(-c2nc(Nc3ccc(O)cc3)c3ccccc3n2)cc(OC)c1OC: 230
- COc1cc(-c2nc(Nc3ccc(OC(F)(F)F)cc3)c3ccccc3n2)cc(OC)c1OC: 180

###

# log10 IC50 annotations
Test system: Jurkat
experiment-description: Antiproliferative activity against human Jurkat cells after 72 hrs by BrdU incorporation assay
Type: functional, cell-based
experimental-endpoint: log10 IC50 (log10 of the value in nM)

- COc1cc(-c2nc(Nc3ccccc3)c3ccccc3n2)cc(OC)c1OC: 2.58
- COc1cc(-c2nc(Nc3ccc(Cl)cc3)c3ccccc3n2)cc(OC)c1OC: 2.72
- Oc1cc(-c2nc(Nc3ccc4cn[nH]c4c3)c3ccccc3n2)cc(O)c1O: 2.84
- COc1cc(-c2nc(Nc3ccc4nc[nH]c4c3)c3ccccc3n2)cc(OC)c1OC: 3.18
- COc1ccc(Nc2nc(-c3cc(O)c(O)c(O)c3)nc3ccccc23)cc1: 2.74
- COc1cc(-c2nc(NCc3ccc(N)cc3)c3ccccc3n2)cc(OC)c1OC: 2.68
- COc1cc(-c2nc(NCc3ccccc3)c3ccccc3n2)cc(OC)c1OC: 2.78
- Oc1cc(-c2nc(NCc3ccc(F)c(F)c3)c3ccccc3n2)cc(O)c1O: 2.78
- Oc1cc(-c2nc(Nc3ccc4[nH]ncc4c3)c3ccccc3n2)cc(O)c1O: 2.85
- CCCCCCCCOc1ccc(Nc2nc(-c3cc(O)c(O)c(O)c3)nc3ccccc23)cc1: 3.63
